B1: scFv; the commonest letter at each place (parent)
chain 1: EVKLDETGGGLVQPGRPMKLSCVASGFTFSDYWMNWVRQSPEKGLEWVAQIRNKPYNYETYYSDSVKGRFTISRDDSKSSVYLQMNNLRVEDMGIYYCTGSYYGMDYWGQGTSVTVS
chain 2: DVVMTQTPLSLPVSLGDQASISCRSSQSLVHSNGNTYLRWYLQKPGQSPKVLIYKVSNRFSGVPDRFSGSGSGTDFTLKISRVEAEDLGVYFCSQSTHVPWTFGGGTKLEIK

# Variants of: B1
# Experiment: yeast surface expression (ratio to wild type); higher = more expressed
# Condition Info: format: scFv 4-4-20, heavy + light
The following variants are listed with their measured yeast surface expression values.

Reference set, count: 3
{"Mut": "chain 1 Y32I", "yeast surface expression": 0.938}
{"Mut": "chain 1 W33V", "yeast surface expression": 0.944}
{"Mut": "chain 1 M34Q V37T", "yeast surface expression": 0.629}

Lab note: measured yeast surface expression of chain 1 W108C G109E was 0.262

Reported yeast surface expression of chain 1 M34P N35Q : 0.194

chain 1 W33C M34K has a reported yeast surface expression of 0.774

Documented yeast surface expression of chain 1 S101P G104T M105Y : 0.208

The variant listed as chain 1 D31K has a reported yeast surface expression of 0.867
